Data credit: patent US20100311714A1

experiment: High-throughput equilibrium solubility at pH 6.8; format: physicochemical; conditions: pH 6.8, aqueous buffer, thermodynamic from solid; read-out: HT-Eq Sol/pH 6.8
Recorded solubility thermodynamic determines the group label, using LOW = under 10 µg/mL, MEDIUM = from 10 µg/mL up to 70 µg/mL, HIGH = 70 µg/mL and over

{"columns": ["structure.as.smiles", "class.label"],
 "data": [
  ["COc1ccc(-c2ccc3ncc4c(c3c2)n(-c2cnccc2C)c(=O)n4C)cn1", "HIGH"],
  ["Cc1nc(N2CCC2)ccc1-n1c(=O)n(C)c2cnc3ccc(-c4cncc(C(C)(C)O)c4)cc3c21", "HIGH"],
  ["CCNc1cc(-c2ccc3ncc4c(c3c2)n(-c2ccc(F)nc2C)c(=O)n4C)cnc1CO", "HIGH"],
  ["CNc1ncc(-c2ccc3ncc4c(c3c2)n(-c2ccc(N3CC(O)C3)nc2C)c(=O)n4C)cc1C(F)(F)F", "MEDIUM"],
  ["CCOc1cc(-c2ccc3ncc4c(c3c2)n(-c2ccc(N3CCCC3)nc2C)c(=O)n4C)cnc1COC", "HIGH"],
  ["CCOCc1cc(-c2ccc3ncc4c(c3c2)n(-c2ccc(F)nc2C)c(=O)n4C)cnc1N", "MEDIUM"],
  ["COCCOc1ccc(-n2c(=O)n(C)c3cnc4ccc(-c5cnc(N)c(C(F)(F)F)c5)cc4c32)c(C)n1", "MEDIUM"],
  ["COCc1ncc(-c2ccc3ncc4c(c3c2)n(-c2ccc(OC)nc2OC)c(=O)n4C)cc1OC", "MEDIUM"]
]}

Exercise: Class for Cc1ncccc1-n1c(=O)n(C)c2cnc3ccc(-c4ccc(OCCCN(C)C)nc4)cc3c21 ?
Solution: HIGH

Exercise: Class for Cc1cccnc1-n1c(=O)n(C)c2cnc3ccc(-c4cnc5[nH]ccc5c4)cc3c21 ?
Solution: MEDIUM

Exercise: Class for Cc1nc(C(C)(C)O)ccc1-n1c(=O)n(C)c2cnc3ccc(-c4cnc(N)c(C(F)(F)F)c4)cc3c21 ?
Solution: LOW

---

Recorded pIC50, one value per entry.
target: PI3K delta (Homo sapiens); construct: for the full-length p110-d subunit are generated and fused by overlapping PCR; His tag (C); made in house; host or cells: baculovirus BV1060; Tn5 (Trichoplusia ni) or TiniPro insect cells; experiment: PI3K delta kinase assay (Kinase-Glo luminescence); type: biochemical; conditions: read-out: EPK_PI3Kdelta/IC50
Sequence (O00329 with tags, fused parts or gaps limits assumed): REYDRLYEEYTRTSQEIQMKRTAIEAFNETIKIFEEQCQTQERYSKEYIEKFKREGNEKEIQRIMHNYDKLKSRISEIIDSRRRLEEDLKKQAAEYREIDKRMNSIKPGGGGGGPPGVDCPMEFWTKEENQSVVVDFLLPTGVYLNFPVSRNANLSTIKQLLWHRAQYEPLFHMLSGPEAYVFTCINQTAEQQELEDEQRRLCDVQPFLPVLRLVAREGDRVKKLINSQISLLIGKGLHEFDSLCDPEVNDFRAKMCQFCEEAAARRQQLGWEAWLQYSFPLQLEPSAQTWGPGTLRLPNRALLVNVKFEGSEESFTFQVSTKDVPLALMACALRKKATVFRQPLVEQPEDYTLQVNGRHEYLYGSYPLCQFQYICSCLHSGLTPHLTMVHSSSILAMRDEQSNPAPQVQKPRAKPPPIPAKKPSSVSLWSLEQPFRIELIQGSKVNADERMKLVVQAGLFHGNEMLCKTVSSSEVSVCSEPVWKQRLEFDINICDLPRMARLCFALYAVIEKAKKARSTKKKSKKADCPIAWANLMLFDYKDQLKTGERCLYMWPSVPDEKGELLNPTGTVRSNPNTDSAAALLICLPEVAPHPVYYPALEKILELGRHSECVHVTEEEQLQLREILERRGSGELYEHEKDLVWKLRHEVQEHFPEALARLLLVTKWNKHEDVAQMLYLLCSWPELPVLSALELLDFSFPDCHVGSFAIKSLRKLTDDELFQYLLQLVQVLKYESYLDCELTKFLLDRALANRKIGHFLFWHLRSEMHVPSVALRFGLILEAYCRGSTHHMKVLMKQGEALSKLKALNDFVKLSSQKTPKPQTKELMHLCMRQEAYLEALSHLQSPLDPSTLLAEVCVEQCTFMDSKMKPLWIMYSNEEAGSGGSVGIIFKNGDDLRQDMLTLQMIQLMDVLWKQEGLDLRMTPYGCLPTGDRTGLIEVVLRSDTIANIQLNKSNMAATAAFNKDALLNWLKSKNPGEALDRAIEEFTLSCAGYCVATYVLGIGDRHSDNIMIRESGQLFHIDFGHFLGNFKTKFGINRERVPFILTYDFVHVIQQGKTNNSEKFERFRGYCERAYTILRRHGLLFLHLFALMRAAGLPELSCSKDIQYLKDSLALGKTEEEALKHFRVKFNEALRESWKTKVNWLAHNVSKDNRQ
The value called pIC50 is obtained by taking minus log10 of the concentration in mol/L.

{"columns": ["compound", "experimental.value"],
 "data": [
  ["Cc1nc(F)ccc1-n1c(=O)n(C)c2cnc3ccc(-c4cncc(C(C)(C)O)c4)cc3c21 [Example 7.8]", 7.42]
]}

Exercise: Find the measured pIC50 of CNc1ncc(-c2ccc3ncc4c(c3c2)n(-c2ccc(N3CC[C@H](O)C3)nc2C)c(=O)n4C)cc1C(F)(F)F [Example 32.5] and report it.
Solution: 8.40

Exercise: Find the measured pIC50 of CNc1ncc(-c2ccc3ncc4c(c3c2)n(-c2ccc(NC(=O)COC)nc2C)c(=O)n4C)cn1 [Example 20.3] and report it.
Solution: 6.39

Exercise: Find the measured pIC50 of COc1cc(-c2ccc3ncc4c(c3c2)n(-c2ccc(N3CC(O)C3)nc2C)c(=O)n4C)cnc1CO [Example 29.5] and report it.
Solution: 7.30
